# system-under-test: HIV Env, isolate X1193_C1 (HIV)
# assay-name: cell-based or functional assay
Could you please report measured IC80 (µg/ml) with constrains for the items listed next?
The reply should read as a number followed by its unit.

Query: Return reported IC80 (µg/ml) with constrains; argument: ePGDM13 (antibody, V domains shown) VH: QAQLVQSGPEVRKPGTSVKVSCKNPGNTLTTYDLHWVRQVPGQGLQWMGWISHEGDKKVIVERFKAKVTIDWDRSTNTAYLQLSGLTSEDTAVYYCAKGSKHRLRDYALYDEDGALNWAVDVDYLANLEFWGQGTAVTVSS VL: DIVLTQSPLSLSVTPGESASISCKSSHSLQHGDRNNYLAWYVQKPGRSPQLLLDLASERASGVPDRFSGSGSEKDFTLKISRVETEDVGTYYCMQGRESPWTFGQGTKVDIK
Result: 0.381 µg/mL

Query: So what's the measured IC80 (µg/ml) with constrains for this one? ePGDM9 (antibody, V domains shown) VH: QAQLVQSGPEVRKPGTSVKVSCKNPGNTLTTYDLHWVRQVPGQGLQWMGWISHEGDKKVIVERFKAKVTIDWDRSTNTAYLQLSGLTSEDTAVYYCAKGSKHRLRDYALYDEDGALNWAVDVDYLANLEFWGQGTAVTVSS VL: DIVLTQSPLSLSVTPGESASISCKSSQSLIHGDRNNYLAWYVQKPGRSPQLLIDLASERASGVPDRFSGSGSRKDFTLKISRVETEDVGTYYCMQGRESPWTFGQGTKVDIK
Result: 0.158 µg/mL

Query: Requested field: IC80 (µg/ml) with constrains. Item: PGDM1400 (antibody, V domains shown) VH: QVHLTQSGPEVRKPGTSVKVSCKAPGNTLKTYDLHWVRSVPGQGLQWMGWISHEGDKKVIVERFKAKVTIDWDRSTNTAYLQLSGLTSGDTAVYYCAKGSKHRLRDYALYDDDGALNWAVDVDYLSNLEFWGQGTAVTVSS VL: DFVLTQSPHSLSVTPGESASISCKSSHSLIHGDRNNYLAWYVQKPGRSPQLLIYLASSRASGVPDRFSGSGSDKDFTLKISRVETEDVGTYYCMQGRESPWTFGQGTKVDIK
Result: 0.374 µg/mL
